test: MTT tissue viability assay (ET-50 protocol) for skin irritancy; details: human
REPORTED PROPERTY: viability at 2 hr
Dear colleague, please send the value followed by its unit.

Return reported viability at 2 hr; argument: CCCCCCCCCCCCOS(=O)(=O)[O-].[Na+] [Neat Surfactant, sodium dodecyl sulfate] 28%

====

test: MTT tissue viability assay (ET-50 protocol) for skin irritancy; conditions: human
REPORTED PROPERTY: viability at 3.5 hr (%)
The response must be a number in % with no trailing unit.

Return reported viability at 3.5 hr; argument: CCCCCCCCCCCCOS(=O)(=O)[O-].[Na+] [Neat Surfactant, sodium dodecyl sulfate] 19.6
